Data origin, for the record: the supplement of paper PMC3334620

Parameter PBM E-score: see the listing below.
tgt: Ylr278c (UniProt Q05854)
Sequence (Q05854 whole entry): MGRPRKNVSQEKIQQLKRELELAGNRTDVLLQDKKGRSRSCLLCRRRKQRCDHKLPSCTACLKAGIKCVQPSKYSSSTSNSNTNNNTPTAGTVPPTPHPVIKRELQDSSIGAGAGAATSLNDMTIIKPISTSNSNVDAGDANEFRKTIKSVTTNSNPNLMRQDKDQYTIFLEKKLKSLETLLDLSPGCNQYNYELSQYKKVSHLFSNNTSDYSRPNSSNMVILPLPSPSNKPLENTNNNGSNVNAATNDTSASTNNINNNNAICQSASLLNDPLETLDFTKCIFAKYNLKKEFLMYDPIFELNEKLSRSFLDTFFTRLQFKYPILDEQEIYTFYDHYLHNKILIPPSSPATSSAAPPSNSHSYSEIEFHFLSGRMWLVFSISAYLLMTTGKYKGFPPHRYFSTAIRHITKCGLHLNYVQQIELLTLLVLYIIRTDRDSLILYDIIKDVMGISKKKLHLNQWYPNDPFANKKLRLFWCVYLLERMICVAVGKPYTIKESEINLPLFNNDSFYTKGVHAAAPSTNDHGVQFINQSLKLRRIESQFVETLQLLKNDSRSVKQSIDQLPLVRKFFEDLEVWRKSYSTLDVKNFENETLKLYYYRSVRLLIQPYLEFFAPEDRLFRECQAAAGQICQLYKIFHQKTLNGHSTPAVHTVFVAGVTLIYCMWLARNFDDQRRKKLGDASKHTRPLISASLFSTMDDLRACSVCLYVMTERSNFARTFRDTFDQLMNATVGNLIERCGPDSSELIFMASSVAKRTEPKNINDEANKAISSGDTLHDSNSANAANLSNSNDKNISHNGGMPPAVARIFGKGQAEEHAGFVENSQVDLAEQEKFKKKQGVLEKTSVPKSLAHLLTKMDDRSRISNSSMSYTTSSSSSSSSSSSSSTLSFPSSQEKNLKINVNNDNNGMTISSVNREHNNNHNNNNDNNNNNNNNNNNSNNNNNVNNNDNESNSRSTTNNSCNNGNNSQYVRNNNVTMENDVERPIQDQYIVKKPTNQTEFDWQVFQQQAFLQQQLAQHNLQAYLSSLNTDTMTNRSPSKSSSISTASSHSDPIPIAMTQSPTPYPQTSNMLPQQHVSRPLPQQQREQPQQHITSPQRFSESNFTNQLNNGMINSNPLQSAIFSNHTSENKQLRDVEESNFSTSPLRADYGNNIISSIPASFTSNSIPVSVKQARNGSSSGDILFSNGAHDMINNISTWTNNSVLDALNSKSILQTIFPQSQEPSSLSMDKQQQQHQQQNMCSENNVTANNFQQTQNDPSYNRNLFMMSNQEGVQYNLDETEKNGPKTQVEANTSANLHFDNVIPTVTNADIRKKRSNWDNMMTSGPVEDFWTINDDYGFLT
procedure_details: PBM E-score (8-mer binding enrichment) (E-score (-0.5 to 0.5)); higher = stronger / more preferred TF binding
particulars: protein concentration: 200 nM; construct: GST-DNA-binding domain
Whole data set: some 33,000 sequences, median “E-score (-0.5 to 0.5)” near -0.054, cut for the highest 2% near 0.39. For the sample, the highest values were picked, then their nearest neighbours and some sequences at random.
I'd appreciate a reply containing only the number, no unit.

ACGGAGAT | 0.465

# next sequence below
Query: Determine from records and report PBM E-score for `ACGCGGAT`
Reply: 0.23

---

tgt: Ylr278c (UniProt Q05854)
procedure_details: PBM E-score (8-mer binding enrichment) (E-score (-0.5 to 0.5)); higher = stronger / more preferred TF binding
particulars: protein concentration: 200 nM; construct: GST-DNA-binding domain
The full ranking holds about 33,000 sequences; the median of “E-score (-0.5 to 0.5)” is about -0.054, and the highest 2% start at about 0.39. The list comes from a sample in which the highest values are over-represented; it also holds close analogues and randomly drawn sequences.
The entries below come with measured PBM E-score values attached.
Answer with a bare number; do not write a unit.

Past entries and their recorded results:
ACTCCGCC | 0.475
ACGCCGCT | 0.224
GCTCCGCA | 0.377
CTCAGGAC | -0.159
TCTCCTCA | -0.147

Query: Respond only with PBM E-score recorded for `ACTCCGCA`
Reply: 0.452

Query: Give recorded PBM E-score. `GTCAGGAC`
Reply: -0.266

Query: Assign PBM E-score to the following record: `TCTCCGCA`
Reply: 0.407

Query: For the sequence `AGTGGGAG` , give its measured PBM E-score value.
Reply: -0.221

Query: Determine from records and report PBM E-score for `CTTCCGCA`
Reply: 0.198

Query: Entry `CTCCGGAC` needs its PBM E-score filled in; supply it.
Reply: 0.477

Query: Supply measured PBM E-score of `CTGCGGAC` in your reply.
Reply: 0.221

Query: Given `GTCCGGAC` , respond with its PBM E-score.
Reply: 0.455

Query: Entry `ACTCCCCT` needs its PBM E-score filled in; supply it.
Reply: 0.174

Query: Give the reported value of PBM E-score for this record: `ATCCGTAG`
Reply: 0.134

Query: Find the measured PBM E-score of `GTACGGAC` and report it.
Reply: 0.249

---

tgt: Ylr278c (UniProt Q05854)
procedure_details: PBM E-score (8-mer binding enrichment) (E-score (-0.5 to 0.5)); higher = stronger / more preferred TF binding
particulars: protein concentration: 200 nM; construct: GST-DNA-binding domain
The full ranking holds about 33,000 sequences; the median of “E-score (-0.5 to 0.5)” is about -0.054, and the highest 2% start at about 0.39. Only a selection was taken, and the highest values are over-represented in it overall.
reported_property: PBM E-score
Reply with the value as a number alone.

ATGGAGAC | -0.103
ATTCCTGG | -0.0751

Query: Answer with the recorded PBM E-score of `ACACTCCG` only.
Reply: 0.398

Query: Input `GCGGAGAC` , output reported PBM E-score.
Reply: 0.4

Query: Supply measured PBM E-score of `ATTCCGTG` in your reply.
Reply: 0.361

Query: Supply reported PBM E-score belonging to this sequence: `CCACTCCA`
Reply: -0.0346

Query: In one line, give reported PBM E-score of the entry `ATTCCGGG` .
Reply: 0.443

Query: Please report PBM E-score for the following sequence: `AAGGAGAT`
Reply: 0.0883

Query: Return reported PBM E-score. Input sequence: `ATTCCTGC`
Reply: 0.0732

Query: Identify measured PBM E-score associated with `ACTCCCCG`
Reply: 0.338

Query: Give PBM E-score for `ACACTCCT`
Reply: -0.0208

---

tgt: Ylr278c (UniProt Q05854)
procedure_details: PBM E-score (8-mer binding enrichment) (E-score (-0.5 to 0.5)); higher = stronger / more preferred TF binding
particulars: protein concentration: 200 nM; construct: GST-DNA-binding domain
In all, about 33,000 sequences were measured (“E-score (-0.5 to 0.5)”: median about -0.054, highest 2% from about 0.39 on). This is one part of a sample in which the highest values are shown more often than they occur.
Listing of recorded PBM E-score by entry.
Lab note: record just the number, no unit beside it.

ATACACAT | -0.212
AGAAGCCG | 0.241

Query: Please report PBM E-score for the following sequence: `GGGATGCA`
Reply: -0.0857

Query: Using the record for `CGTTTTGA` , state its measured PBM E-score.
Reply: -0.142

Query: Please list PBM E-score recorded for the sequence `ATCTGACG`
Reply: -0.134

Query: Please indicate PBM E-score recorded for `CAACGGCG`
Reply: 0.207

Query: For the sequence `CAGAATCG` , report PBM E-score.
Reply: 0.00258

Query: Give reported PBM E-score value for `GATCTCAC`
Reply: 0.0769

Query: Let me know recorded PBM E-score for `CCTAAGAA` , thanks.
Reply: -0.261

Query: Tell me measured PBM E-score for `CAGCTTCC` please.
Reply: -0.0366

Query: Note PBM E-score for the sequence shown: `GTTTAGGA`
Reply: -0.122

---

tgt: Ylr278c (UniProt Q05854)
procedure_details: PBM E-score (8-mer binding enrichment) (E-score (-0.5 to 0.5)); higher = stronger / more preferred TF binding
particulars: protein concentration: 200 nM; construct: GST-DNA-binding domain
Over roughly 33,000 sequences, “E-score (-0.5 to 0.5)” has its median near -0.054; the highest 2% begin near 0.39. This excerpt belongs to a sample that is enriched for the highest values.
In this section, each of the sequences is paired with its reported PBM E-score.

Look over these answered cases.
ATCTAACG | 0.0888
AGGACCGC | 0.227
CCTCCTAA | -0.122
GGGAGAAC | -0.0233
CGGAGAAC | 0.445
AGGACCCG | 0.158
AGGAGAAC | -0.00067
ACTGGTGC | -0.0757
CGGACCGC | 0.392
AGGACCGA | 0.0864

Query: Input `AGGAGAAG` , output reported PBM E-score.
Reply: -0.151

---

Measured PBM E-score, listed per entry for reference.
tgt: Ylr278c (UniProt Q05854)
procedure_details: PBM E-score (8-mer binding enrichment) (E-score (-0.5 to 0.5)); higher = stronger / more preferred TF binding
particulars: protein concentration: 200 nM; construct: GST-DNA-binding domain
The full ranking holds about 33,000 sequences; the median of “E-score (-0.5 to 0.5)” is about -0.054, and the highest 2% start at about 0.39. The sample as a whole holds a higher share of the highest values than the screen did.
# answer = number (no unit)

CAGGGCCG | 0.181
CATTCTCC | 0.191
CACTAAAG | -0.169
AACCGGGC | 0.0679
ACCCAGTC | -0.0927

Query: Indicate the recorded PBM E-score value for this sequence: `GATTCGAA`
Reply: 0.102

---

PBM E-score values by entry
tgt: Ylr278c (UniProt Q05854)
procedure_details: PBM E-score (8-mer binding enrichment) (E-score (-0.5 to 0.5)); higher = stronger / more preferred TF binding
particulars: protein concentration: 200 nM; construct: GST-DNA-binding domain
Over roughly 33,000 sequences, “E-score (-0.5 to 0.5)” has its median near -0.054; the highest 2% begin near 0.39. Many of the other results were omitted from the sample, so the highest values are more common in it than they were.
Form field (numeric): enter value without unit.

CGGCGTTA | 0.405
AGCATTGC | -0.106
AGATCGGC | 0.224
GGGCAACA | 0.0452
CGGCGTTC | 0.378

Query: Under Ylr278c (UniProt Q05854), report PBM E-score for `ACTAGCCT`
Reply: -0.0654

Query: Give PBM E-score for `ACTCGCAT` tested on Ylr278c (UniProt Q05854).
Reply: -0.0232

---

tgt: Ylr278c (UniProt Q05854)
procedure_details: PBM E-score (8-mer binding enrichment) (E-score (-0.5 to 0.5)); higher = stronger / more preferred TF binding
particulars: protein concentration: 200 nM; construct: GST-DNA-binding domain
Whole data set: some 33,000 sequences, median “E-score (-0.5 to 0.5)” near -0.054, cut for the highest 2% near 0.39. Only a selection was taken, and the highest values are over-represented in it overall.
Label Yes when PBM E-score is at or above 0.1; anything below gets No.

Some solved cases for reference:
TCGGAGCA | Yes
AGGGGTTA | No
CGGGAGCC | No
CCGGGTTC | Yes
GCGGAGCC | Yes
AGTGTTAT | No
ACTGGAGC | No
GTCCGATA | Yes
ACCGGATG | Yes
AATAGATT | No

Query: Determine whether measured PBM E-score meets or exceeds 0.1 for `CGGACATC`
Reply: Yes

Query: Reported PBM E-score reaches at least 0.1 for `GTGCTAGA` ?
Reply: No

Query: Hello, I need to know if `GCAGAGCC` has measured PBM E-score not below 0.1. Thanks!
Reply: No

Query: Determine whether measured PBM E-score meets or exceeds 0.1 for `CTCCGATA`
Reply: Yes

Query: Would you say `AGGTTCAG` shows PBM E-score at minimum 0.1?
Reply: No
